src = PubChem BioAssay

test: viability loss with induced miR-34 in A549 – imaging, A549 dox-inducible miR-34, nuclei and caspase counts, primary screen (AID 1347080); conditions: A549 miR-34 inducible, Hoechst nuclei count, 48 h; measured here: total cells without miR-34 induction; also: test concentration not given here
# cell count values compiled below
// print number alone

Worked set:
Cc1nnsc1C(=O)Nc1ccc(-n2nc(C(F)(F)F)cc2C(F)(F)F)cc1; 5430
Cc1cc(Nc2ncnc3ccc(-c4ccc(CNCCS(C)(=O)=O)o4)cc23)ccc1Oc1ccn2ncnc2c1; 8200
O=C(Nc1ccc(-c2ccnc(Nc3ccc(N4CCOCC4)cc3)n2)cc1)C1CCCN1 (configuration not stated); 7160
CC(C)(C)C(=O)Nc1ccccc1; 5670
O=C(O)CCC/C=C\C[C@@H]1[C@@H](/C=C/[C@@H](O)C2CCCCC2)[C@H](O)C[C@@H]1O; 6300
CC(C)CCOc1ccc(N)cc1; 4850

Incoming: What does the record list as cell count for O=C(O)CCCCCC[C@H]1C(=O)NC(=O)N1CCC(O)C1CCCCC1 (some centres not stated) ?
Outgoing: 5640

Incoming: For the compound shown here, COc1cccc(-c2cc(F)ccc2C2Cc3nc(N)nc(C)c3C(=O)N2)n1 (configuration not stated) , give the reported cell count.
Outgoing: 2270

Incoming: Consider the compound shown here: CCCCCCCCC(=O)NCc1cc(OC)c(O)cc1I What is its recorded cell count?
Outgoing: 8580

Incoming: Which cell count value is on record for NC(=O)c1cccc(-c2cc(Nc3ccc(OC(F)(F)F)cc3)ncn2)c1 ?
Outgoing: 7960

Incoming: Recorded cell count for Cc1c[nH]c(=O)n(CCCN2CCN(c3ccccc3OCC(F)(F)F)CC2)c1=O , please?
Outgoing: 10500

Incoming: Which cell count is listed for O=c1[nH]cnc2ccccc12 ?
Outgoing: 9450
